- methodNotes: NCI Yeast Anticancer Drug Screen. Data for the cln2 rad14 strain (AID 165);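 also: 0% = growth equal to vehicle treated cultures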
- settings: S. cerevisiae cln2 rad14 strain, at 50.0 µM, stronger effect = higher value
The panel holds about 79,000 compounds, 15% with a hit somewhere; the sample as a whole holds those more often.
recordedMetric: growth inhibition (%)
Provide only the numeric value, understood in %.

Take a look at these entries with their results.
molecule: Cc1cccc(C)c1NC(=O)C1=NC(=S)NC(c2ccccc2)C1c1nc2ccccc2s1 (configuration not stated)
assayResult: 10.2
//
molecule: O=CC(O)C(O)C(O)C1CNC(=S)O1 (configuration not stated)
assayResult: -2.25
//
molecule: O=C(c1ccccc1)c1ccncc1
assayResult: -1
//
molecule: O=C(N/N=C/C1CCCCC1)C(=O)N/N=C/C1CCCCC1
assayResult: -7.45
//
molecule: CCCCCC(=O)OC
assayResult: -17.1

What growth inhibition value was documented for this molecule, C=CCCCN(c1ccc(C(=O)OCC)cc1)S(=O)(=O)c1ccc(C)cc1 ? 12.7

Would you mind doing CCCNC(=S)/N=C\c1c(O)c2ccccc2oc1=O as well? -0.45

Would you mind doing NC(=O)c1c(N)nnc(-c2ccccc2)c1-c1ccccc1 as well? -25.8

Would you mind doing CCOC(=O)c1ccc(OC)c2[nH]c3c(c(=O)c12)C(=O)c1[nH]c2c(OC)ccc(C(=O)OCC)c2c(=O)c1C3=O as well? -17.9

Would you mind doing CC1OC1P(=O)(O)O (configuration not stated) as well? 1.7

The values you see were collected from PubChem BioAssay (NCI).
